B1: TPR 5TU (parent)
chain: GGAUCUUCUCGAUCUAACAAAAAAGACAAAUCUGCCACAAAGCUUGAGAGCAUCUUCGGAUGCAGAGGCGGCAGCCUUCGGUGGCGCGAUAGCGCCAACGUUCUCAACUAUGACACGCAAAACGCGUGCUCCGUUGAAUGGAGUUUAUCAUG

# Variants of: B1
# assay remarks: polymerase ribozyme fitness, log enrichment relative to wild type (log ratio); higher = more active; in vitro selection for triplet polymerase activity
Fewer inactive variants are shown than the library holds.
Catalogue of polymerase ribozyme fitness (log ratio) readings, one per entry.
Quick one: just the number, no unit, thanks!

Look over these answered cases.
mutation spec: A21U G141U
polymerase ribozyme fitness (log ratio): 1.9
//
mutation spec: A24U C63A
polymerase ribozyme fitness (log ratio): 1.21

Consider the additional variant presented here.
Complete the entry with polymerase ribozyme fitness (log ratio) for G48A G80C G94A C96U C99G -3.97
